# target-under-test: Maternal embryonic leucine zipper kinase (Homo sapiens)
# Sequence (Q14680 whole entry): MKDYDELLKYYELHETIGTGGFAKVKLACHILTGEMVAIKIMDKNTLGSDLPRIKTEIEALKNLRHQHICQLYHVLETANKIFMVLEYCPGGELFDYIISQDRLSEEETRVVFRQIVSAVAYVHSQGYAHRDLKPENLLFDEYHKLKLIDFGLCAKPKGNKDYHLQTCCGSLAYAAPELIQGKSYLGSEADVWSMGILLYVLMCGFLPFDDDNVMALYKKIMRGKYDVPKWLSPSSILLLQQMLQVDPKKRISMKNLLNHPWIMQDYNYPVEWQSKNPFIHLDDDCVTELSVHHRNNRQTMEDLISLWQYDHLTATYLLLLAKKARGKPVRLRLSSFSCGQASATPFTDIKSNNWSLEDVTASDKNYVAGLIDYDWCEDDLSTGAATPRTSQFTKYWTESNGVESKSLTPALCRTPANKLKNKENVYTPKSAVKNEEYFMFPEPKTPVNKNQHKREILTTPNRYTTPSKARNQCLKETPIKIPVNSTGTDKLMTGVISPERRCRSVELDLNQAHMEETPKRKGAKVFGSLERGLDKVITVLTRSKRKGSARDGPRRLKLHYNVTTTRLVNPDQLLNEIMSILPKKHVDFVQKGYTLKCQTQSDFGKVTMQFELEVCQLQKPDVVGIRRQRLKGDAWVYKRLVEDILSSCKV
experimental-readout: IC50
Returns: string containing the numeric result and its unit.

Task item: Quick check: IC50 of CN1C(=O)[C@@H](N2CCc3c(nn(Cc4ccccc4)c3Br)C2=O)COc2ccccc21 [TP-030-2] ?
Reply: 1000 nM

----------
experimental-readout: pIC50
Note on pIC50: it is the negative log10 of concentration, concentration in mol/L.

Task item: API: value(readout= pIC50, system= Serine/threonine-protein kinase 32C (Homo sapiens, UniProt Q86UX6), query= "CN1C(=O)[C@@H](N2CCc3c(nn(Cc4ccccc4)c3Br)C2=O)COc2ccccc21" )
Reply: 6.00

----------
# target-under-test: Myosin-IIIb (Homo sapiens)
# Sequence (Q8WXR4 whole entry): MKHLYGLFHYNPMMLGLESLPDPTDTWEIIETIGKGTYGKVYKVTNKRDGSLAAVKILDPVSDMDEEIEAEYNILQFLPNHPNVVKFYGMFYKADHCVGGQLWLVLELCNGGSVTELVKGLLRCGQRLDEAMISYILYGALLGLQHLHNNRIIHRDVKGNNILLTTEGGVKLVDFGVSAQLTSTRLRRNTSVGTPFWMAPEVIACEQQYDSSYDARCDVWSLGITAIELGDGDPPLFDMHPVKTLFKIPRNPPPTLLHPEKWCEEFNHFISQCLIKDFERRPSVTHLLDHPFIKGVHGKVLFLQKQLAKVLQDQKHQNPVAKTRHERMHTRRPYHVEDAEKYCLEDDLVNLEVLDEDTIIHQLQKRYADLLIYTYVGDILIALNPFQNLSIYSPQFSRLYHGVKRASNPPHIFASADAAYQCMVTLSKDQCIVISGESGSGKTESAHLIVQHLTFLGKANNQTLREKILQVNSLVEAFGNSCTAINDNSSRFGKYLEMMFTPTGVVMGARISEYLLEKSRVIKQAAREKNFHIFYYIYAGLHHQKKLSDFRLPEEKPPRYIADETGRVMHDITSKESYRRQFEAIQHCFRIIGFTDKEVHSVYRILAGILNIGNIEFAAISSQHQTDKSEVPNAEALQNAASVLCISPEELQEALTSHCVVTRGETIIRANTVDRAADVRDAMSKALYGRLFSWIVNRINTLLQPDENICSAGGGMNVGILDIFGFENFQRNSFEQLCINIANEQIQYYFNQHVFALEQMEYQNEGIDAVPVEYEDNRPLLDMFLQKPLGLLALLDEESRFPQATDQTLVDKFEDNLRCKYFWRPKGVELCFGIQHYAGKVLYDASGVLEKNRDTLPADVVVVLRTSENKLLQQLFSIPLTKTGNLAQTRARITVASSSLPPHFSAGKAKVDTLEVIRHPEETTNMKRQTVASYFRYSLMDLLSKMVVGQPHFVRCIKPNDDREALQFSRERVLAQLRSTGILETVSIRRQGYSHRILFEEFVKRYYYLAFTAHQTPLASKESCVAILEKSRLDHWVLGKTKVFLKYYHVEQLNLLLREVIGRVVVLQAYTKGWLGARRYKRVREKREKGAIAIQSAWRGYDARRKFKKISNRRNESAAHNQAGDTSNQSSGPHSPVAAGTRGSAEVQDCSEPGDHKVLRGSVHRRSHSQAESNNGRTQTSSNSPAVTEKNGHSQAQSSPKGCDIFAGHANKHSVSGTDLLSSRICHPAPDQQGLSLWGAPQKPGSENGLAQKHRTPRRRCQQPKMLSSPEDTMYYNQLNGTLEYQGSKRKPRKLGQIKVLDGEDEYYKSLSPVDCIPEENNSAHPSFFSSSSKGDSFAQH
experimental-readout: IC50 (nM)
State the answer as a number, implicitly in nM.

Task item: API: value(readout= IC50, system= Myosin-IIIb (Homo sapiens), query= CN1C(=O)[C@@H](N2CCc3c(nn(Cc4ccccc4)c3Br)C2=O)COc2ccccc21 [TP-030-2] )
Reply: 1000

----------
# target-under-test: Cyclin-dependent kinase 16 (Homo sapiens)
# Sequence (Q00536 whole entry): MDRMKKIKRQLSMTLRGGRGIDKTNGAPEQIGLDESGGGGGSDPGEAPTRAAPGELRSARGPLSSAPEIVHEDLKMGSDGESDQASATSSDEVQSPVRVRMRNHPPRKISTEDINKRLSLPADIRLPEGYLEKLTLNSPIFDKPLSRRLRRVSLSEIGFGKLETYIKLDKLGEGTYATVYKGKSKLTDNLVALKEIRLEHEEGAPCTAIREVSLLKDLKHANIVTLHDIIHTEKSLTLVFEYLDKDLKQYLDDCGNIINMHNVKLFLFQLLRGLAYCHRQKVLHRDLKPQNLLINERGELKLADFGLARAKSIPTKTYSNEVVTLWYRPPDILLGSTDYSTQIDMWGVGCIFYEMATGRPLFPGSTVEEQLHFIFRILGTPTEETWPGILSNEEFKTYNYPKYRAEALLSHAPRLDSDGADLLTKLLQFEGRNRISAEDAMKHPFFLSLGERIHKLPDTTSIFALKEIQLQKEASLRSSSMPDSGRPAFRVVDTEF
experimental-readout: IC50 (nM)
State the answer as a number, implicitly in nM.

Task item: Quick check: IC50 of CN1C(=O)[C@@H](N2CCc3c(nn(Cc4ccccc4)c3Br)C2=O)COc2ccccc21 [TP-030-2] ?
Reply: 1000

----------
# target-under-test: Serine/threonine-protein kinase 33 (Homo sapiens)
experimental-readout: IC50 (nM)
State the answer as a number, implicitly in nM.

Task item: API: value(readout= IC50, system= Serine/threonine-protein kinase 33 (Homo sapiens), query= "CN1C(=O)[C@@H](N2CCc3c(nn(Cc4ccccc4)c3Br)C2=O)COc2ccccc21" )
Reply: 1000

----------
# target-under-test: Receptor-type tyrosine-protein kinase FLT3 (Homo sapiens, UniProt P36888)
# Sequence (P36888 whole entry): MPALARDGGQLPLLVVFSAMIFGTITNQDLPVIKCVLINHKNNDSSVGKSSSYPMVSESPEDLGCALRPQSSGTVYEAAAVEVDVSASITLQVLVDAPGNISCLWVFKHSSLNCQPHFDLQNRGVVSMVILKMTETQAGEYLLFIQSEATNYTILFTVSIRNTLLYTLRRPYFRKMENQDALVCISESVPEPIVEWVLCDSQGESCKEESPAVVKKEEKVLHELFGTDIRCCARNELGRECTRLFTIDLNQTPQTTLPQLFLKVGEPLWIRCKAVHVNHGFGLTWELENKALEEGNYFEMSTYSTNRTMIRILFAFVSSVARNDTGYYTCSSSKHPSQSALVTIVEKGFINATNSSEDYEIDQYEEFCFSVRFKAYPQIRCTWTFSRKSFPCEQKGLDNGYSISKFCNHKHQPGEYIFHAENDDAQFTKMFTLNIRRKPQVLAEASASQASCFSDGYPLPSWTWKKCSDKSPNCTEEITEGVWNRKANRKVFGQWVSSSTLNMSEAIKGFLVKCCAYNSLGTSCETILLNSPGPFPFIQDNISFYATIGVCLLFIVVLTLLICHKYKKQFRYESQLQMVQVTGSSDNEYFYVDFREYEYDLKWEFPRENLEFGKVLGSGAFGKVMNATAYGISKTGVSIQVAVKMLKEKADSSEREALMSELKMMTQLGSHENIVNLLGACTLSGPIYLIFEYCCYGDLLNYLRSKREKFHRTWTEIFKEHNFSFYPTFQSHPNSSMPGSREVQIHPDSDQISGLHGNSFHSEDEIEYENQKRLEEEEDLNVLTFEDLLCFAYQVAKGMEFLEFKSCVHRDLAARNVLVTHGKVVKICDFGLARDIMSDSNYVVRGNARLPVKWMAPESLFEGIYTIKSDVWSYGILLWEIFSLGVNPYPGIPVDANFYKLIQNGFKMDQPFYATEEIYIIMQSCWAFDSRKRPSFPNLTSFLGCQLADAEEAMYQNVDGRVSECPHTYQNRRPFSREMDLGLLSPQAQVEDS
experimental-readout: pIC50
Note on pIC50: it is the negative log10 of concentration, concentration in mol/L.

Task item: API: value(readout= pIC50, system= Receptor-type tyrosine-protein kinase FLT3 (Homo sapiens, UniProt P36888), query= "CN1C(=O)[C@@H](N2CCc3c(nn(Cc4ccccc4)c3Br)C2=O)COc2ccccc21" )
Reply: 6.00

----------
# target-under-test: UniProt O43293
# Sequence (O43293 whole entry): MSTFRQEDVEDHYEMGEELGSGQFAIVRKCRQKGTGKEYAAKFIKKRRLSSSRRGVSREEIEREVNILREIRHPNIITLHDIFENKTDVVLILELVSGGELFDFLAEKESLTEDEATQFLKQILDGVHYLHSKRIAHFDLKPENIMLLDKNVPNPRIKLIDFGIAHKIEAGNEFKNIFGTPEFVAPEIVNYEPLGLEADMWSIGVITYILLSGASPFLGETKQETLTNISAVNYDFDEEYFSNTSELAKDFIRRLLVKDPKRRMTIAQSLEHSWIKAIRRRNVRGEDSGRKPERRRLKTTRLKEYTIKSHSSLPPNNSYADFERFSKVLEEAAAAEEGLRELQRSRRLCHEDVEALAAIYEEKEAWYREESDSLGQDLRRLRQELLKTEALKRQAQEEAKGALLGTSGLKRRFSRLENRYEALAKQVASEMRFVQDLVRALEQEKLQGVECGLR
experimental-readout: IC50 (nM)
State the answer as a number, implicitly in nM.

Task item: Quick check: IC50 of "CN1C(=O)[C@@H](N2CCc3c(nn(Cc4ccccc4)c3Br)C2=O)COc2ccccc21" ?
Reply: 1000

----------
experimental-readout: pIC50
Note on pIC50: it is the negative log10 of concentration, concentration in mol/L.

Task item: API: value(readout= pIC50, system= Tyrosine-protein kinase Srms (Homo sapiens, UniProt Q9H3Y6), query= CN1C(=O)[C@@H](N2CCc3c(nn(Cc4ccccc4)c3Br)C2=O)COc2ccccc21 [TP-030-2] )
Reply: 6.00

----------
experimental-readout: IC50 (nM)
State the answer as a number, implicitly in nM.

Task item: API: value(readout= IC50, system= Serine/threonine-protein kinase MARK1 (Homo sapiens), query= "CN1C(=O)[C@@H](N2CCc3c(nn(Cc4ccccc4)c3Br)C2=O)COc2ccccc21" )
Reply: 1000

----------
# target-under-test: Protein kinase C zeta type (Homo sapiens, UniProt Q05513)
# Sequence (Q05513 whole entry): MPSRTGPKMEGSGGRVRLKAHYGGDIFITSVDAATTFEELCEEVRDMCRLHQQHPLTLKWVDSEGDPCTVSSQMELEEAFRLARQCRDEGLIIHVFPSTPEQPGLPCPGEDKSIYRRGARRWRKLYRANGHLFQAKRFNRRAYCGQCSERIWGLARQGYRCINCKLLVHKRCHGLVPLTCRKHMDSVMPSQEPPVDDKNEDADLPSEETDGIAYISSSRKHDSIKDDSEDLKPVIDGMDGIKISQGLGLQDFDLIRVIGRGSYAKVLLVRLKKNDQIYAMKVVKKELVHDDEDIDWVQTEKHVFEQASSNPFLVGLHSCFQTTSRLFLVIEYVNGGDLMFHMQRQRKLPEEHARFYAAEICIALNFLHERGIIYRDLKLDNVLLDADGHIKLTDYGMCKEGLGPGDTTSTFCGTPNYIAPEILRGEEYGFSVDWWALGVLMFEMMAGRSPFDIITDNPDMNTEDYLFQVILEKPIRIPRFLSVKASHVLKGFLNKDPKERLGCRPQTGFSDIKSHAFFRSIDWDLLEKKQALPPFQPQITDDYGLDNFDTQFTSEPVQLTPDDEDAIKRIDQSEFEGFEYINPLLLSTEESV
experimental-readout: IC50 (µM)
State the answer as a number, implicitly in µM.

Task item: Quick check: IC50 of CN1C(=O)[C@@H](N2CCc3c(nn(Cc4ccccc4)c3Br)C2=O)COc2ccccc21 [TP-030-2] ?
Reply: 1

----------
# target-under-test: Serine/threonine-protein kinase PAK 6 (Homo sapiens, UniProt Q9NQU5)
# Sequence (Q9NQU5 whole entry): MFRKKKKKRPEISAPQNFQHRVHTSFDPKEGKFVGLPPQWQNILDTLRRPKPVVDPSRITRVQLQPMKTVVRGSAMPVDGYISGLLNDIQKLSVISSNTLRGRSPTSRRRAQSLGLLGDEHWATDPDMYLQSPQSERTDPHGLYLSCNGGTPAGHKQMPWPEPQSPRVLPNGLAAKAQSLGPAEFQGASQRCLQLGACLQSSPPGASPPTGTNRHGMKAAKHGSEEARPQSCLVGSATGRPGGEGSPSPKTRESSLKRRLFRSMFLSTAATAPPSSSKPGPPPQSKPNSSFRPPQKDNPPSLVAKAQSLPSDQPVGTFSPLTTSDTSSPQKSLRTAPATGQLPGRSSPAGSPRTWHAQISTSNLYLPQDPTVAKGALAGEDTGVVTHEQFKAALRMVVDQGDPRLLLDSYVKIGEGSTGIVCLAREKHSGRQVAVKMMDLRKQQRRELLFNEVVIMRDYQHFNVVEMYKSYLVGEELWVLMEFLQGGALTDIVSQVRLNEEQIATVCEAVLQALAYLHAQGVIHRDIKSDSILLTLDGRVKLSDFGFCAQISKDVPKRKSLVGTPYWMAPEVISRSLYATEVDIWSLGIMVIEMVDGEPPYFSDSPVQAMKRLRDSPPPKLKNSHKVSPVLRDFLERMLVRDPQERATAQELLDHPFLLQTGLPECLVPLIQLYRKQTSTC
experimental-readout: pIC50
Note on pIC50: it is the negative log10 of concentration, concentration in mol/L.

Task item: Quick check: pIC50 of "CN1C(=O)[C@@H](N2CCc3c(nn(Cc4ccccc4)c3Br)C2=O)COc2ccccc21" ?
Reply: 6.00

----------
# target-under-test: Mitogen-activated protein kinase kinase kinase 5 (Homo sapiens)
# Sequence (Q99683 whole entry): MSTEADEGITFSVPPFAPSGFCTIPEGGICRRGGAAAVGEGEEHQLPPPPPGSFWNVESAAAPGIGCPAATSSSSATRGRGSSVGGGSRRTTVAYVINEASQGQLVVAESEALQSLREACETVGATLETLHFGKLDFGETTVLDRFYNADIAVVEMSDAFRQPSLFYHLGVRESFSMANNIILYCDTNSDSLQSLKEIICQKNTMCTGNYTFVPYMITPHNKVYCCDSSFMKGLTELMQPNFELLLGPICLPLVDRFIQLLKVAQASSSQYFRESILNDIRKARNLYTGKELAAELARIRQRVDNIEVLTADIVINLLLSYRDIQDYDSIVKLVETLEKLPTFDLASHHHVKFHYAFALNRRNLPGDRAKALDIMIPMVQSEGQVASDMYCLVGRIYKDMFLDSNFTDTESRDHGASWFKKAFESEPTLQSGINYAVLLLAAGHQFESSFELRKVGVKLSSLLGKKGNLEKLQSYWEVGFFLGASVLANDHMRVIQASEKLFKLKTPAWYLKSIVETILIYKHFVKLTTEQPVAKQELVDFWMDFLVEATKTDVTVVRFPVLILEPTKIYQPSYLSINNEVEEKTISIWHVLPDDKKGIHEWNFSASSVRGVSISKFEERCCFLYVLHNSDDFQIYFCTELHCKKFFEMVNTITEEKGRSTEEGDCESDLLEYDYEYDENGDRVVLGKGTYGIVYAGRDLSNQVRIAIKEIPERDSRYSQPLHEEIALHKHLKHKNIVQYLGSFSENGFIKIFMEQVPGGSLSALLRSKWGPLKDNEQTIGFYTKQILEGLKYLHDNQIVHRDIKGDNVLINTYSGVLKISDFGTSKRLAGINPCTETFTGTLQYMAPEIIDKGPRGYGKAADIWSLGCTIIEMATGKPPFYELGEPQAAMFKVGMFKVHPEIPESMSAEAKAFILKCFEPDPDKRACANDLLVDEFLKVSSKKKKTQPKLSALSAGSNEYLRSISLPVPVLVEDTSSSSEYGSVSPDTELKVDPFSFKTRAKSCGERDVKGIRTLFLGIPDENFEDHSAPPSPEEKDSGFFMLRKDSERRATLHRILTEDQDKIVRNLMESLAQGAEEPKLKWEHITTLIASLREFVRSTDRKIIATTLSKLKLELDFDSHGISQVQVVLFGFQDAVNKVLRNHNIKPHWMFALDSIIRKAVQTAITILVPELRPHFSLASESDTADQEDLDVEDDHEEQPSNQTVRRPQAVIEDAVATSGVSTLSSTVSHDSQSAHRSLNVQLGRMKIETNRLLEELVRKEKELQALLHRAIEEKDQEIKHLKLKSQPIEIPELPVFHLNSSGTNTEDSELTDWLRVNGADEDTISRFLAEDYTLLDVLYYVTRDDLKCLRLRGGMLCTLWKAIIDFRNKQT
# experiment-summary: ASK [MAP3K5(M3K5LGA1)] Takeda global kinase panel
experimental-readout: IC50 (nM)
State the answer as a number, implicitly in nM.

Task item: API: value(readout= IC50, system= Mitogen-activated protein kinase kinase kinase 5 (Homo sapiens), query= "CN1C(=O)[C@@H](N2CCc3c(nn(Cc4ccccc4)c3Br)C2=O)COc2ccccc21" )
Reply: 1000

----------
experimental-readout: IC50 (nM)
State the answer as a number, implicitly in nM.

Task item: API: value(readout= IC50, system= Insulin receptor-related protein (Homo sapiens), query= "CN1C(=O)[C@@H](N2CCc3c(nn(Cc4ccccc4)c3Br)C2=O)COc2ccccc21" )
Reply: 1000

----------
# target-under-test: Serine/threonine-protein kinase tousled-like 1 (Homo sapiens)
# Sequence (Q9UKI8 whole entry): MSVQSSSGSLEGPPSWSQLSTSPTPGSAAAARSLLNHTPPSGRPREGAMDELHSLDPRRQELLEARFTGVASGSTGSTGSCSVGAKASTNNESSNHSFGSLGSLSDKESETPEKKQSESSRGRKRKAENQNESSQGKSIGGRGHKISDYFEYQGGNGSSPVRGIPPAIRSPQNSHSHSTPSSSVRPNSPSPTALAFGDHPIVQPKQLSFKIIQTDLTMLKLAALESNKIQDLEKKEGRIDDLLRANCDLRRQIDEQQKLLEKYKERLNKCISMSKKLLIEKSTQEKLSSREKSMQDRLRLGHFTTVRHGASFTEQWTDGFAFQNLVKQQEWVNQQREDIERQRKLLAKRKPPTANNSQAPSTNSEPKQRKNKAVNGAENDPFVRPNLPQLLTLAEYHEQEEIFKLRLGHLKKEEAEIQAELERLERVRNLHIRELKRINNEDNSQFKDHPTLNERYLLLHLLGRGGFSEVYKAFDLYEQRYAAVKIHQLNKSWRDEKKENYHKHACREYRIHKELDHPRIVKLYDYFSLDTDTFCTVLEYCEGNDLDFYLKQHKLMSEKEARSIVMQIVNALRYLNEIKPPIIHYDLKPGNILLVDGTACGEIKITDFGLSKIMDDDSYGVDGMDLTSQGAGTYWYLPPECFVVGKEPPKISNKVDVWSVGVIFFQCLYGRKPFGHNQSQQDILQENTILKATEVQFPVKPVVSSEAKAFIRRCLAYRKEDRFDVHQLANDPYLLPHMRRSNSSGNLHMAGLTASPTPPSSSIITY
experimental-readout: IC50
Returns: string containing the numeric result and its unit.

Task item: API: value(readout= IC50, system= Serine/threonine-protein kinase tousled-like 1 (Homo sapiens), query= "CN1C(=O)[C@@H](N2CCc3c(nn(Cc4ccccc4)c3Br)C2=O)COc2ccccc21" )
Reply: 1000 nM
